test system: PC-3; test: Cytotoxicity against human PC3 cells expressing high level of Bcl-xL after 72 hrs by ATP-LITE assay; format: functional, cell-based; conditions: PC-3, 72 h
Listed here: items and their measured EC50.
The reply should contain only the number, in nM.

CC1=C(C2=C(C)C(=O)c3c(cc(O)c(O)c3CCCc3ccc(F)cc3)C2=O)C(=O)c2cc(O)c(O)c(CCCc3ccc(F)cc3)c2C1=O    2620
CC1=C(C2=C(C)C(=O)c3c(cc(O)c(O)c3Cc3ccc(-c4ccccc4)cc3)C2=O)C(=O)c2cc(O)c(O)c(Cc3ccc(-c4ccccc4)cc3)c2C1=O    2970
CC1=C(C2=C(C)C(=O)c3c(cc(O)c(O)c3CCC(C)(C)c3ccccc3)C2=O)C(=O)c2cc(O)c(O)c(CCC(C)(C)c3ccccc3)c2C1=O    2000
CC1=C(C2=C(C)C(=O)c3c(cc(O)c(O)c3CCC3CCCCC3)C2=O)C(=O)c2cc(O)c(O)c(CCC3CCCCC3)c2C1=O    2400
CC1=C(C2=C(C)C(=O)c3c(cc(O)c(O)c3CCCc3ccccc3)C2=O)C(=O)c2cc(O)c(O)c(CCCc3ccccc3)c2C1=O    1300

Give me measured EC50, please, for this molecule: CC1=C(C2=C(C)C(=O)c3c(cc(O)c(O)c3C(=O)Cc3ccccc3)C2=O)C(=O)c2cc(O)c(O)c(C(=O)Cc3ccccc3)c2C1=O
5440

Please look at this molecule and report its EC50: CC1=C(C2=C(C)C(=O)c3c(cc(O)c(O)c3CCc3ccccc3)C2=O)C(=O)c2cc(O)c(O)c(CCc3ccccc3)c2C1=O
1400

* * *

# reported pKi; entries follow
biological target: UniProt:P10415; assay: Displacement of FITC-Bim BH3 peptide from Bcl-2 after 10 mins by fluorescence polarization assay
Sequence (P10415 whole entry): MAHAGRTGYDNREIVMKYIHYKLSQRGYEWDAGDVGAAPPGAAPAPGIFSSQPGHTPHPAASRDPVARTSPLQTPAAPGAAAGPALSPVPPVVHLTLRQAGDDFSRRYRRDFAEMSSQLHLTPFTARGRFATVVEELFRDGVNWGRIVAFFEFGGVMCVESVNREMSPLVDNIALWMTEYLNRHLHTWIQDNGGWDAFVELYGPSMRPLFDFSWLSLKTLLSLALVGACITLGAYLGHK
In simple prose, pKi is minus the logarithm base ten of a concentration in moles per litre.

CC1=C(C2=C(C)C(=O)c3c(cc(O)c(O)c3CCCc3ccccc3)C2=O)C(=O)c2cc(O)c(O)c(CCCc3ccccc3)c2C1=O    5.84
CC1=C(C2=C(C)C(=O)c3c(cc(O)c(O)c3C(=O)Cc3ccccc3)C2=O)C(=O)c2cc(O)c(O)c(C(=O)Cc3ccccc3)c2C1=O    6.82
CC1=C(C2=C(C)C(=O)c3c(cc(O)c(O)c3C(C)C)C2=O)C(=O)c2cc(O)c(O)c(C(C)C)c2C1=O    6.60
CCc1ccc(CCNC(=O)c2c(O)c(O)cc3c2C(=O)C(C)=C(C2=C(C)C(=O)c4c(cc(O)c(O)c4C(=O)NCCc4ccc(CC)cc4)C2=O)C3=O)cc1    6.85

Assign pKi to the following record: CC1=C(C2=C(C)C(=O)c3c(cc(O)c(O)c3Cc3ccc(Cl)cc3)C2=O)C(=O)c2cc(O)c(O)c(Cc3ccc(Cl)cc3)c2C1=O
6.64

Tell me measured pKi for CC1=C(C2=C(C)C(=O)c3c(cc(O)c(O)c3C(=O)NCC(C)c3ccccc3)C2=O)C(=O)c2cc(O)c(O)c(C(=O)NCC(C)c3ccccc3)c2C1=O (stereo not drawn) please.
6.82

Provide one value: measured pKi of CC1=C(C2=C(C)C(=O)c3c(cc(O)c(O)c3CC3CCCC3)C2=O)C(=O)c2cc(O)c(O)c(CC3CCCC3)c2C1=O
5.82

Fill in reported pKi for this entry: CC1=C(C2=C(C)C(=O)c3c(cc(O)c(O)c3Cc3ccccc3)C2=O)C(=O)c2cc(O)c(O)c(Cc3ccccc3)c2C1=O
6.72
